# testedTarget: human IL-23R (Homo sapiens, UniProt Q5VWK5)
# Construct: UniProtKB—Q5VWK5, amino acids 22-629; secretion signal of the plasmid (Promega N1371); expressed in transfected cells
# experiment: Binding assay (NanoBRET displacement of fluorophore-labelled reference compound) for estimating binding affinity to human IL-23R
# conditionInfo: Table 3-1; read-out: Ki hIL-23R
*1 amine or outer side, *2 acyl side, *3 side chain or, on linkers, in order; H or OH if unused. Where a SMILES comes first, the peptide text is derived from it. Bridges are numbered along the chain shown (N, C = ends). [ ]: non-standard residue; d: D form. 2Nal = N[C@@H](Cc1ccc2ccccc2c1)C(=O)O; AEF = NCCOc1ccc(C[C@H](N)C(=O)O)cc1; X20 = O=C(c1ccc(CCN[*:1])cc1)[*:2]; X1 = O=C(Cc1ccc(CN[*:1])cc1)[*:2]; 3Pal = N[C@@H](Cc1cccnc1)C(=O)O; αMeL = CC(C)C[C@](C)(N)C(=O)O; CH2COCH2 = O=C(C[*:1])C[*:2]
// reported Ki per item
observable: Ki (nM)

compound: CC(C)C[C@]1(C)NC(=O)[C@H](Cc2ccc3ccccc3c2)NC(=O)[C@H](Cc2ccc(OCCN)cc2)NC(=O)[C@@H]2CSCC(=O)CSC[C@H](NC(=O)[C@H](CO)NC(=O)Cc3ccc(cc3)CNC(=O)CC[C@@H](C(=O)N[C@@H](CCCNC(=N)N)C(=O)N[C@@H](Cc3cccnc3)C(N)=O)NC1=O)C(=O)N[C@@H](Cc1c[nH]c3ccccc13)C(=O)N[C@@H](CCC(N)=O)C(=O)N2 [Compound 147] ([X1]SCWQC[AEF][2Nal][αMeL]ER[3Pal]-NH2; linker 3-6 via CH2COCH2; lactam N-10)
testedTarget: human IL-23R (Homo sapiens, UniProt Q5VWK5)
unitName: nM
recordedNumber: 0.0119
//
compound: CC(C)C[C@]1(C)NC(=O)[C@H](Cc2ccc3ccccc3c2)NC(=O)[C@H](Cc2ccc(OCCN)cc2)NC(=O)[C@@H]2CSCC(=O)CSC[C@H](NC(=O)[C@H](CO)NC(=O)c3ccc(cc3)CCNC(=O)CC[C@@H](C(=O)N[C@@H](CCCNC(=N)N)C(N)=O)NC1=O)C(=O)N[C@@H](Cc1c[nH]c3ccccc13)C(=O)N[C@@H](CCC(N)=O)C(=O)N2 [Compound 50] ([X20]SCWQC[AEF][2Nal][αMeL]ER-NH2; linker 3-6 via CH2COCH2; lactam N-10)
testedTarget: human IL-23R (Homo sapiens, UniProt Q5VWK5)
unitName: nM
recordedNumber: 5.1

* * *

# experiment: Peptide stability in simulated gastric fluid (SGF)
# Type: in vitro ADME
# conditionInfo: pig, simulated gastric fluid (SGF) with porcine pepsin, Table 3-3, porcine pepsin, pH 1.2, 37° C., 10 μM, 4 h, read-out: SGF (% remaining 4 h)
*1 amine or outer side, *2 acyl side, *3 side chain or, on linkers, in order; H or OH if unused. Where a SMILES comes first, the peptide text is derived from it. Bridges are numbered along the chain shown (N, C = ends). [ ]: non-standard residue; d: D form. Trp(1-Me) = Cn1cc(C[C@H](N)C(=O)O)c2ccccc21; 2Nal = N[C@@H](Cc1ccc2ccccc2c1)C(=O)O; CH2COCH2 = O=C(C[*:1])C[*:2]
observable: remaining at 4 h, 10 μM (%)

compound: CC(=O)N[C@H]1CCCCNC(=O)CC[C@@H](C(=O)N[C@@H](CCCNC(=N)N)C(N)=O)NC(=O)[C@H](CC(C)C)NC(=O)[C@H](Cc2ccc3ccccc3c2)NC(=O)[C@H](Cc2c[nH]c3ccccc23)NC(=O)[C@@H]2CSCC(=O)CSC[C@H](NC(=O)[C@H](CO)NC1=O)C(=O)N[C@@H](Cc1cn(C)c3ccccc13)C(=O)N[C@@H](CCC(N)=O)C(=O)N2 [Compound 27] (Ac-KSC[Trp(1-Me)]QCW[2Nal]LER-NH2; lactam 1-10; linker 3-6 via CH2COCH2)
recordedNumber: 0
